- system name: recombinant IL4I1 (Homo sapiens, UniProt Q96RQ9)
- Sequence (Q96RQ9 22-567): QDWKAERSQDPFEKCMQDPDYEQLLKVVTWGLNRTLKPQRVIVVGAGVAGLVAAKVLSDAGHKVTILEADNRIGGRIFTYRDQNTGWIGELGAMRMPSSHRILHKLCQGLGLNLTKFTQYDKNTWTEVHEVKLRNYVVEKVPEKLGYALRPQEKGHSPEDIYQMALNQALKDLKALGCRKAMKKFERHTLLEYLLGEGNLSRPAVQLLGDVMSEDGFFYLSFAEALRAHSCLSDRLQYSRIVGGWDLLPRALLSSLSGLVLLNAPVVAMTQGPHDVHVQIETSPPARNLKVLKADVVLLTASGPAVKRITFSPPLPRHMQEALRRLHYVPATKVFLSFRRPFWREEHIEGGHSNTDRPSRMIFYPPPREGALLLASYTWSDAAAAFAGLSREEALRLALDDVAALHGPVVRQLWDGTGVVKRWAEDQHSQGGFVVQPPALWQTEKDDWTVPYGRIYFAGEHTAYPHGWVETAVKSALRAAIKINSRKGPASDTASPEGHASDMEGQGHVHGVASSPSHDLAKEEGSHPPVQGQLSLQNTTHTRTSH
- assay details: IL4I1 Enzymatic Assay (Amplex Red/HRP coupled detection of H2O2, fluorescence)
- settings: 1 nM recombinant IL4I1; four-hour pre-incubation with compound; 1 mM each Phe, Tyr, Trp; ten-point titration
pEC50: −log10 of the molar value.
Documented pEC50 across a set of compounds

{"columns": ["compound", "pEC50"],
 "data": [
  ["O=C(NCc1nnc(-c2ccccc2)s1)c1cn(Cc2ccccn2)nn1", 7.72],
  ["O=C(NCc1nnc(-c2ccccc2)s1)c1cn(C2C3COCC32)nn1 (stereo not drawn)", 6.27],
  ["CC(C)(O)c1cc(C(=O)NCc2cc(-c3ccccc3)no2)on1", 6.04],
  ["Cc1[nH]nc(C(=O)NCc2nnc(-c3ccccc3)s2)c1F", 7.04],
  ["O=C(NCc1nnc(-c2ccccc2)s1)c1scc2c1OCCO2", 7.57],
  ["O=C(NCc1nnc(-c2ccccc2)s1)c1cn(C2CCC(O)C2)nn1 (stereo not drawn)", 7.96],
  ["O=C(NCc1nnc(-c2ccccc2)s1)c1cn(C2(CO)COC2)nn1", 6.47],
  ["CCc1ccc(-n2cc(C(=O)NCc3nnc(-c4ccccc4)s3)nn2)c(C)n1", 8.05],
  ["O=C(NCc1nnc(-c2ccccc2)s1)c1cn(CC2CCCO2)nn1 (stereo not drawn)", 6.96]
]}

* * *

- system name: recombinant IL4I1 (Homo sapiens, UniProt Q96RQ9)
- Construct: purchased R&D Systems 5684-AO-020
- assay details: IL4I1 Enzymatic Assay (Amplex Red/HRP coupled detection of H2O2, fluorescence)
- Assay type: biochemical
- settings: 1 nM recombinant IL4I1; four-hour pre-incubation with compound; 1 mM each Phe, Tyr, Trp; ten-point titration
endpoint name: log10(EC50) (log10 of the value in nM)

{"columns": ["molecule", "system name", "recorded measurement"],
 "data": [
  ["C[C@@H](C(F)F)n1cc(C(=O)NCc2nnc(-c3ccccc3)s2)nn1", "recombinant IL4I1 (Homo sapiens, UniProt Q96RQ9)", 0.85],
  ["CC(=O)N1CC(n2cc(C(=O)NCc3nnc(-c4ccccc4)s3)nn2)C1", "recombinant IL4I1 (Homo sapiens, UniProt Q96RQ9)", 2.47],
  ["O=C(NCc1nnc(-c2ccccc2)s1)c1cn([C@@H]2C[C@H]2CO)nn1 (single isomer, unassigned) [Example 141]", "recombinant IL4I1 (Homo sapiens, UniProt Q96RQ9)", 0.70],
  ["O=C(NCc1nnc(-c2ccccc2)s1)c1cc(C2CC2)n[nH]1", "recombinant IL4I1 (Homo sapiens, UniProt Q96RQ9)", 2.23],
  ["O=C(NCc1nnc(-c2ccccc2)s1)c1cn([C@H]2COC[C@@H]2F)nn1", "recombinant IL4I1 (Homo sapiens, UniProt Q96RQ9)", 2.15],
  ["O=C(NCc1nnc(-c2ccccc2)s1)c1cn(CC2COC2)nn1", "recombinant IL4I1 (Homo sapiens, UniProt Q96RQ9)", 1.04],
  ["Cc1cc(C(=O)NCc2nnc(-c3ccccc3)s2)c(C)n1C", "recombinant IL4I1 (Homo sapiens, UniProt Q96RQ9)", 2.73],
  ["O=C(NCc1nnc(-c2ccccc2)s1)c1cn(CC(F)(F)C(=O)O)nn1", "recombinant IL4I1 (Homo sapiens, UniProt Q96RQ9)", 2.58],
  ["CCc1[nH]nc(C(=O)NCc2nnc(-c3ccccc3)s2)c1C", "recombinant IL4I1 (Homo sapiens, UniProt Q96RQ9)", 2.19]
]}
